Values were extracted from paper PMC8007111.

Target: hM2 mAChR (Homo sapiens)
Construct: expressed in transfected cells; host or cells: CHO-K1 (membrane preparation)
Sequence (P08172 1-466): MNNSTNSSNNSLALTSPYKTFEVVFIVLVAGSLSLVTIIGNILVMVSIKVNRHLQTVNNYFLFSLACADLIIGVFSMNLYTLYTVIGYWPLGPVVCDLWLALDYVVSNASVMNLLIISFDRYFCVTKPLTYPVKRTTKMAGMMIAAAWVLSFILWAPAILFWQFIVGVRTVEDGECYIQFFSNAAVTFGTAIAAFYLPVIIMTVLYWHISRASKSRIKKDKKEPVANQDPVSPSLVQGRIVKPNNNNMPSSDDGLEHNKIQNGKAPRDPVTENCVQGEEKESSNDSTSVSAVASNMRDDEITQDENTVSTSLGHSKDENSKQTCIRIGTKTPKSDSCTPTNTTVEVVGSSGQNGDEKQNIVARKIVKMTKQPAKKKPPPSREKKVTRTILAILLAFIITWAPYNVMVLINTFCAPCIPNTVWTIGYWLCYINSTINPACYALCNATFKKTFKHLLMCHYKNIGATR
Assay: [3H]NMS inhibition radioligand binding, hM2 in CHO-K1 cell membranes
Conditions: [3H]NMS, CHO-K1 cell membranes; mean ± S.E.M.
observation.type: pKi hM2

Inquiry: Quick one: pKi hM2 for C[N+](C)(C)C[C@@H]1CO[C@@H](c2ccccc2)CO1.[I-] (relative stereo) ?
Reply text: <5

Inquiry: So what does the record say about pKi hM2 for C[N+](C)(C)C[C@@H]1COC[C@](c2ccccc2)(C2CCCCC2)O1.[I-] (relative stereo) ?
Reply text: 7.91 ± 0.13

Inquiry: Reported pKi hM2, compound C[N+](C)(C)C[C@@H]1CO[C@H](c2ccc(Sc3ccccc3)cc2)CO1.[I-] (relative stereo) [15a] : ____
Reply text: 6.70 ± 0.13

Inquiry: Endpoint output: pKi hM2 of C[N+](C)(C)C[C@@H]1COC[C@@H](c2ccc([S+]([O-])c3ccccc3)cc2)O1.[I-] (relative stereo) . Value?
Reply text: 6.38 ± 0.10
